# assayOverview: Single-dose plasma pharmacokinetics in ferrets
# conditionContext: plasma, iv, 20 mg/kg, AUClast, ferret plasma; analyte 441524 after IV '524; 20 mg/kg; Mean

- compound: "N#CC1(c2ccc3c(N)ncnn23)OC(CO)C(O)C1O (stereo not shown)"
  AUC(0-t) / µM·h: 81.1

###

# assayOverview: Single-dose plasma pharmacokinetics in ferrets
# conditionContext: plasma, iv, 20 mg/kg, AUClast, ferret plasma; analyte 441524 after IV '524; 20 mg/kg; individual animals F0201-F0203

- compound: "N#CC1(c2ccc3c(N)ncnn23)OC(CO)C(O)C1O (stereo not shown)"
  outputUnit: "µM·h"
  AUC(0-t): 82

###

# assayOverview: in vitro
# conditionContext: human, % cell viability, HCT-8, 33.333 µM, 72 h

- compound: "CC(C)C(=O)OCC1OC(C#N)(c2ccc3c(N)ncnn23)C(OC(=O)C(C)C)C1OC(=O)C(C)C (stereo not shown) [GS-621763]"
  outputUnit: "%"
  viability at 72 h, 33.333 µM: 106

###

# assayOverview: in vitro
# conditionContext: African green monkey, % cell viability, VeroE6, 33.333 µM, 72 h

- compound: "CC(C)C(=O)OCC1OC(C#N)(c2ccc3c(N)ncnn23)C(OC(=O)C(C)C)C1OC(=O)C(C)C (stereo not shown)"
  viability at 72 h, 33.333 µM / %: 101

###

# assayOverview: in vitro
# conditionContext: human, CC50, HCT-8, 72 h

- compound: "CCC(CC)COC(=O)[C@H](C)N[P@](=O)(OC[C@H]1O[C@@](C#N)(c2ccc3c(N)ncnn23)[C@H](O)[C@@H]1O)Oc1ccccc1 [remdesivir]"
  CC50: "36.4 µM"

###

# assayOverview: Cytotoxicity assay (PrestoBlue), HCT-8
# conditionContext: human, HCT-8 cells, % cell viability, HCT-8, 100 µM, 72 h
quantityKind: viability at 72 h, 100 µM (%)

- compound: "CC(C)C(=O)OCC1OC(C#N)(c2ccc3c(N)ncnn23)C(OC(=O)C(C)C)C1OC(=O)C(C)C (centres unmarked)"
  quantityKind: "viability at 72 h, 100 µM"
  observedResult: 2
- compound: "N#C[C@@]1(c2ccc3c(N)ncnn23)O[C@H](CO)[C@@H](O)[C@H]1O"
  quantityKind: "viability at 72 h, 100 µM"
  observedResult: 62

###

# assayOverview: Single-dose plasma pharmacokinetics in ferrets
# conditionContext: plasma, iv, 20 mg/kg, Cl_obs, ferret plasma; analyte 441524 after IV '524; 20 mg/kg; Mean

- compound: "N#CC1(c2ccc3c(N)ncnn23)OC(CO)C(O)C1O (stereo not shown)"
  clearance: "14.4 mL/min/kg"

###

# assayOverview: Cytotoxicity assay (PrestoBlue), “M6” HAE
# conditionContext: male, human, % cell viability, M6 HAE, 1.235 µM, 72 h

- molecule: "CC(C)C(=O)OCC1OC(C#N)(c2ccc3c(N)ncnn23)C(OC(=O)C(C)C)C1OC(=O)C(C)C (stereo not shown)"
  viability at 72 h, 1.235 µM / %: 97

###

# assayOverview: in vivo
# conditionContext: iv, 20 mg/kg

- entrySmiles: "N#C[C@@]1(c2ccc3c(N)ncnn23)O[C@H](CO)[C@@H](O)[C@H]1O"
  outputUnit: "µM·h"
  AUC(0-t): 81.1

###

# assayOverview: in vitro
# conditionContext: human, % cell viability, HEp-2, 3.704 µM, 72 h

- molecule: "N#C[C@@]1(c2ccc3c(N)ncnn23)O[C@H](CO)[C@@H](O)[C@H]1O [GS-441524]"
  outputUnit: "%"
  viability at 72 h, 3.704 µM: 93

###

# assayOverview: in vitro
# conditionContext: human, % cell viability, HCT-8, 3.704 µM, 72 h
quantityKind: viability at 72 h, 3.704 µM (%)

- molecule: "CC(C)C(=O)OCC1OC(C#N)(c2ccc3c(N)ncnn23)C(OC(=O)C(C)C)C1OC(=O)C(C)C (stereo not shown)"
  quantityKind: "viability at 72 h, 3.704 µM"
  observedResult: 114

###

# assayOverview: Single-dose plasma pharmacokinetics in ferrets
# conditionContext: plasma, iv, 20 mg/kg, Cl_obs, ferret plasma; analyte 441524 after IV '524; 20 mg/kg; individual animals F0201-F0203
quantityKind: clearance (mL/min/kg)

- molecule: "N#CC1(c2ccc3c(N)ncnn23)OC(CO)C(O)C1O (stereo not shown) [compound 441524]"
  quantityKind: "clearance"
  observedResult: 13.9

###

# assayOverview: in vitro
# conditionContext: African green monkey, % cell viability, VeroE6, 3.704 µM, 72 h

- molecule: "CC(C)C(=O)OCC1OC(C#N)(c2ccc3c(N)ncnn23)C(OC(=O)C(C)C)C1OC(=O)C(C)C (stereo not shown)"
  viability at 72 h, 3.704 µM [%]: 87

###

# assayOverview: Cytotoxicity assay (PrestoBlue), BHK-21
# conditionContext: hamster, BHK-21 cells, % cell viability, BHK-21, 0.046 µM, 72 h
quantityKind: viability at 72 h, 0.046 µM (%)

- compound: "N#C[C@@]1(c2ccc3c(N)ncnn23)O[C@H](CO)[C@@H](O)[C@H]1O"
  observedResult: 64
- compound: "CC(C)C(=O)OCC1OC(C#N)(c2ccc3c(N)ncnn23)C(OC(=O)C(C)C)C1OC(=O)C(C)C (centres unmarked)"
  observedResult: 76

###

# assayOverview: in vitro
# conditionContext: female, human, % cell viability

- compound: "CC(C)C(=O)OCC1OC(C#N)(c2ccc3c(N)ncnn23)C(OC(=O)C(C)C)C1OC(=O)C(C)C (stereo not shown)"
  viability at 72 h, 0.046 µM (%): 84

###

# assayOverview: in vitro
# conditionContext: African green monkey, % cell viability
quantityKind: viability at […]

- entrySmiles: "CCC(CC)COC(=O)[C@H](C)N[P@](=O)(OC[C@H]1O[C@@](C#N)(c2ccc3c(N)ncnn23)[C@H](O)[C@@H]1O)Oc1ccccc1"
  quantityKind: "viability at […]"
  observedResult: "79%"

###

# assayOverview: in vitro
# conditionContext: female, human, % cell viability

- compound: "CCC(CC)COC(=O)[C@H](C)N[P@](=O)(OC[C@H]1O[C@@](C#N)(c2ccc3c(N)ncnn23)[C@H](O)[C@@H]1O)Oc1ccccc1 [remdesivir]"
  viability at […] / %: 91

###

# assayOverview: Cytotoxicity assay (PrestoBlue), “M2” HAE
# conditionContext: human, % cell viability, M2 HAE, 100 µM, 72 h

- compound: "CC(C)C(=O)OCC1OC(C#N)(c2ccc3c(N)ncnn23)C(OC(=O)C(C)C)C1OC(=O)C(C)C (stereo not shown) [GS-621763]"
  outputUnit: "%"
  viability at 72 h, 100 µM: 0

###

# assayOverview: Cytotoxicity assay (PrestoBlue), HCT-8
# conditionContext: human, HCT-8 cells, % cell viability, HCT-8, 1.235 µM, 72 h
quantityKind: viability at 72 h, 1.235 µM (%)

- entrySmiles: "N#C[C@@]1(c2ccc3c(N)ncnn23)O[C@H](CO)[C@@H](O)[C@H]1O"
  quantityKind: "viability at 72 h, 1.235 µM"
  outputUnit: "%"
  observedResult: 89

###

# assayOverview: in vitro
# conditionContext: male, human, % cell viability, M6 HAE, 0.046 µM

- molecule: "CC(C)C(=O)OCC1OC(C#N)(c2ccc3c(N)ncnn23)C(OC(=O)C(C)C)C1OC(=O)C(C)C (stereo not shown)"
  viability at 72 h, 0.046 µM, %: 92

###

# assayOverview: Cytotoxicity assay (PrestoBlue), “F2” HAE
# conditionContext: female, human, “F2” primary human airway epithelial (HAE) cells, % cell viability, F2 HAE, 0.046 µM
Documented viability at 72 h, 0.046 µM across a set of compounds
quantityKind: viability at 72 h, 0.046 µM (%)

- compound: "N#C[C@@]1(c2ccc3c(N)ncnn23)O[C@H](CO)[C@@H](O)[C@H]1O [GS-441524]"
  quantityKind: "viability at 72 h, 0.046 µM"
  observedResult: 92
- compound: "CC(C)C(=O)OCC1OC(C#N)(c2ccc3c(N)ncnn23)C(OC(=O)C(C)C)C1OC(=O)C(C)C (centres unmarked) [GS-621763]"
  quantityKind: "viability at 72 h, 0.046 µM"
  observedResult: 86

###

# assayOverview: Single-dose plasma pharmacokinetics in ferrets
# conditionContext: plasma, iv, 20 mg/kg, Cmax, ferret plasma; analyte 441524 after IV '524; 20 mg/kg; Mean

- molecule: "N#CC1(c2ccc3c(N)ncnn23)OC(CO)C(O)C1O (stereo not shown) [compound 441524]"
  Cmax: "54.2 µM"

###

# assayOverview: in vitro
# conditionContext: human, CC50, “F2” HAE, 72 h

- entrySmiles: "CCC(CC)COC(=O)[C@H](C)N[P@](=O)(OC[C@H]1O[C@@](C#N)(c2ccc3c(N)ncnn23)[C@H](O)[C@@H]1O)Oc1ccccc1"
  CC50 [µM]: 85.5
